For each record, write down the corresponding self-splicing fitness (ln).
test protocol: self-splicing fitness, log relative to wild type (ln ratio); higher = more splicing; Tetrahymena group I intron in knt gene, E. coli kanamycin selection, DiMSum; sequences stand for … in CUCUCU…GGAGGGAAAAGUUAUCAGGCAUGCACCUGGUAGCUAGUCUUUAAACCAAUAGAUUGCAUCGGUUUAAAAGGCAAGACCGUCAAAUUGCGGGAAAGGGGUCAACAGCCGUUCAGUACCAAGUCUCAGGGGAAACUUUGAGAUGGCCUUGCAAAGGGUAUGGUAAUAAGCUGACGGACAUGGUCCUAACCACGCAGCCAAGUCCUAAGUCAACAGAUCUUCUGUUGAUAUGGAUGCAGUUCACAGACUAAAUGUCGGUCGGGGAAGAUGUAUUCUUCUCAUAAGAUAUAGUCGGACCUCUCCUUAAUGGGAGCUAGCGGAUGAAGUGAUGCAACACUGGAGCCGCUGGGAACUAAUUUGUAUGCGAAAGUAUAUUGAUUAGUUUUGGAGUACUCGUGGUCG;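 also: selection with 25 µg/mL kanamycin versus none on LB agar overnight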
measurement setup: 37 °C
Response field accepts a number only; no unit should be typed.

// field: self-splicing fitness (ln); key: CUAUAGCAAUAUUACGCCAC ; value = -1.21

// field: self-splicing fitness (ln); key: CAGAAGCAAUAUUACGGAAU ; value = -1.94

// field: self-splicing fitness (ln); key: GUAAAGCAAUAUUACGGAUA ; value = -0.67

// field: self-splicing fitness (ln); key: ACAUAGCAAUAUUACGUUUA ; value = -1.75

// field: self-splicing fitness (ln); key: CUAUAGCAAUAUUACGCGUU ; value = -2.18

// field: self-splicing fitness (ln); key: GUCAAGCAAUAUUACGGUGC ; value = -1.72

// field: self-splicing fitness (ln); key: CCAGAGCAAUAUUACGACAA ; value = -2.03

// field: self-splicing fitness (ln); key: GCGCAGCAAUAUUACGAGUU ; value = -0.241

// field: self-splicing fitness (ln); key: GAAAAGCAAUAUUACGAUCA ; value = -0.234

// field: self-splicing fitness (ln); key: AUAAAGCAAUAUUACGUGAU ; value = -0.793

// field: self-splicing fitness (ln); key: AUUGAGCAAUAUUACGGUAA ; value = -2.53

// field: self-splicing fitness (ln); key: UAUUAGCAAUAUUACGUUUA ; value = 0.132

// field: self-splicing fitness (ln); key: UUCAAGCAAUAUUACGUGAU ; value = -0.468

// field: self-splicing fitness (ln); key: CGAAAGCAAUAUUACGCCUC ; value = -1.53

// field: self-splicing fitness (ln); key: CACAAGCAAUAUUACGGGUA ; value = -0.601

// field: self-splicing fitness (ln); key: CCAUAGCAAUAUUACGUACU ; value = -2.3

// field: self-splicing fitness (ln); key: CGCGAGCAAUAUUACGUAUG ; value = -1.2

// field: self-splicing fitness (ln); key: GCAAAGCAAUAUUACGCGUU ; value = -2.03

// field: self-splicing fitness (ln); key: UCCUAGCAAUAUUACGUUUG ; value = -3.36

// field: self-splicing fitness (ln); key: ACUCAGCAAUAUUACGUCGU ; value = -0.573

// field: self-splicing fitness (ln); key: ACCUAGCAAUAUUACGGGGG ; value = -1.59

// field: self-splicing fitness (ln); key: AUUAAGCAAUAUUACGUAGG ; value = -1.81

// field: self-splicing fitness (ln); key: GAAGAGCAAUAUUACGGAGC ; value = -1.64

// field: self-splicing fitness (ln); key: CUGAAGCAAUAUUACGACGG ; value = -0.879

// field: self-splicing fitness (ln); key: GGCAAGCAAUAUUACGUAGG ; value = -0.937

// field: self-splicing fitness (ln); key: AUGCAGCAAUAUUACGGCGG ; value = -0.59

// field: self-splicing fitness (ln); key: GCUUAGCAAUAUUACGGCCG ; value = -1.48

// field: self-splicing fitness (ln); key: AUUAAGCAAUAUUACGUCGC ; value = -2.8

// field: self-splicing fitness (ln); key: UCGUAGCAAUAUUACGAUCU ; value = -1.67

// field: self-splicing fitness (ln); key: CUUUAGCAAUAUUACGAUAA ; value = -2.64

// field: self-splicing fitness (ln); key: UAAAAGCAAUAUUACGUUCA ; value = -0.259

// field: self-splicing fitness (ln); key: GCCCAGCAAUAUUACGUCAU ; value = -1.29

// field: self-splicing fitness (ln); key: UUGCAGCAAUAUUACGUUCC ; value = -2.16

// field: self-splicing fitness (ln); key: CUAUAGCAAUAUUACGUCUG ; value = -0.099

// field: self-splicing fitness (ln); key: AGUGAGCAAUAUUACGGUUU ; value = -2.28

// field: self-splicing fitness (ln); key: UAUCAGCAAUAUUACGAGAG ; value = -0.0372

// field: self-splicing fitness (ln); key: CGCAAGCAAUAUUACGAGUC ; value = -2.97

// field: self-splicing fitness (ln); key: UUAGAGCAAUAUUACGCCGA ; value = 0.255

// field: self-splicing fitness (ln); key: GUGGAGCAAUAUUACGUGAA ; value = -0.49

// field: self-splicing fitness (ln); key: CGCGAGCAAUAUUACGGAUU ; value = -2.51

// field: self-splicing fitness (ln); key: UUCCAGCAAUAUUACGAGUC ; value = -1.13

// field: self-splicing fitness (ln); key: AAACAGCAAUAUUACGAGGU ; value = -2.53

// field: self-splicing fitness (ln); key: UAUGAGCAAUAUUACGGUUA ; value = 0.43

// field: self-splicing fitness (ln); key: ACUAAGCAAUAUUACGGUGA ; value = -0.619

// field: self-splicing fitness (ln); key: CGAUAGCAAUAUUACGCGAA ; value = -1.92

// field: self-splicing fitness (ln); key: GCUCAGCAAUAUUACGUGUG ; value = -0.824

// field: self-splicing fitness (ln); key: ACCAAGCAAUAUUACGUGCC ; value = -0.801

// field: self-splicing fitness (ln); key: UUAUAGCAAUAUUACGUGCC ; value = -0.756

// field: self-splicing fitness (ln); key: GAGCAGCAAUAUUACGAACA ; value = -1.07

// field: self-splicing fitness (ln); key: UAUAAGCAAUAUUACGUCAA ; value = -0.698

// field: self-splicing fitness (ln); key: CGUUAGCAAUAUUACGGUAA ; value = -0.129

// field: self-splicing fitness (ln); key: GUCGAGCAAUAUUACGGCUG ; value = -1.7

// field: self-splicing fitness (ln); key: AGGUAGCAAUAUUACGACGC ; value = 0.0178

// field: self-splicing fitness (ln); key: UGGAAGCAAUAUUACGUGCA ; value = -0.187

// field: self-splicing fitness (ln); key: AGGCAGCAAUAUUACGAUAC ; value = -1.42

// field: self-splicing fitness (ln); key: CGGUAGCAAUAUUACGUACU ; value = -0.578

// field: self-splicing fitness (ln); key: AUCAAGCAAUAUUACGUUAU ; value = -0.69

// field: self-splicing fitness (ln); key: GACAAGCAAUAUUACGAGGG ; value = -2.81

// field: self-splicing fitness (ln); key: CGAUAGCAAUAUUACGUUGU ; value = -2.61

// field: self-splicing fitness (ln); key: GAUAAGCAAUAUUACGCAUC ; value = -1.21

// field: self-splicing fitness (ln); key: CGAUAGCAAUAUUACGCACU ; value = 0.174

// field: self-splicing fitness (ln); key: AUUAAGCAAUAUUACGAUAG ; value = -2.55

// field: self-splicing fitness (ln); key: CGGGAGCAAUAUUACGCCCA ; value = -1.24

// field: self-splicing fitness (ln); key: UCUAAGCAAUAUUACGAUUC ; value = -2.83

// field: self-splicing fitness (ln); key: CGGCAGCAAUAUUACGUCUU ; value = 0.328
